test system: ES8 (Ewing's Sarcoma); assay: combination Emax (second highest fraction inhibited in the dose matrix, 72 h); higher = more inhibition; extreme values may be limits of the assay
MEASURED ATTRIBUTE: combination Emax
Could you respond with only the numeric value?

Observe how each entry below is paired with its result.
Q: If you can, please state the reported combination Emax value of CCc1c2c(nc3ccc(O)cc13)-c1cc3c(c(=O)n1C2)COC(=O)[C@]3(O)CC [SN-38] + O=C(c1cc(Cc2n[nH]c(=O)c3ccccc23)ccc1F)N1CCN(C(=O)C2CC2)CC1 [Olaparib] (first compound max 0.3 µM, 7x7, partner max 10 µM) .
A: 0.989

Q: Field request: combination Emax | item: Cn1cnc2c(F)c(Nc3ccc(Br)cc3Cl)c(C(=O)NOCCO)cc21 [Selumetinib] + CC(C)n1c(=O)n(C)c2cnc3cc(F)c(-c4ccc(OCCCN5CCCCC5)nc4)cc3c21 [AZD1390] (first compound max 10 µM, 7x7, partner max 0.3 µM)
A: 0.263

Continuing:
Q: What does the record list as combination Emax for CN(CCO)CC[C@H](CSc1ccccc1)Nc1ccc(S(=O)(=O)NC(=O)c2ccc(N3CCC([C@@H](O)c4ccccc4-c4ccc(Cl)cc4)CC3)cc2)cc1S(=O)(=O)C(F)(F)F [AZD4320] + Cc1cc2ncnn2cc1Nc1ncc2c(n1)n(C1CCOCC1)c(=O)n2C [AZD7648] (first compound max 1 µM, 7x7, partner max 10 µM) ?
A: 0.57

----------
Reported Bliss excess values for the following compounds.
tested on: ES8 (Ewing's Sarcoma); assay: Bliss excess, mean over the matrix (fraction); higher = more synergy
Lab note: jot the number down without any unit.

Q: Field request: Bliss excess | item: CC1(C)CCC(CN2CCN(c3ccc(C(=O)NS(=O)(=O)c4ccc(NCC5CCOCC5)c([N+](=O)[O-])c4)c(Oc4cnc5[nH]ccc5c4)c3)CC2)=C(c2ccc(Cl)cc2)C1 [Venetoclax] + CN(C)CCCOc1ccc(-c2ccc3ncc4c(c3c2)n(C2CCOCC2)c(=O)n4C)cn1 [AZD0156] (first compound max 1 µM, 7x7, partner max 1 µM)
A: 0.0212

Q: For the compound shown here, COc1cccc(OCCCN)c1-c1cc(Nc2cnc(C#N)cn2)n[nH]1 [Prexasertib] + CN(C)CCCOc1ccc(-c2ccc3ncc4c(c3c2)n(C2CCOCC2)c(=O)n4C)cn1 [AZD0156] (first compound max 1 µM, 7x7, partner max 1 µM) , give the reported Bliss excess.
A: -0.011

Q: Field request: Bliss excess | item: Cc1c2c(nn1C)CSCc1cc(n(C)n1)CSc1cc(c3ccccc3c1)OCCCc1c(C(=O)O)n(C)c3c-2c(Cl)ccc13 [AZD5991] + CS(=O)(=O)CCNCc1ccc(-c2ccc3ncnc(Nc4ccc(OCc5cccc(F)c5)c(Cl)c4)c3c2)o1 [Lapatinib] (first compound max 1 µM, 7x7, partner max 10 µM)
A: 0.109

Q: Need Bliss excess of COc1cccc(OCCCN)c1-c1cc(Nc2cnc(C#N)cn2)n[nH]1 [Prexasertib] + Cc1cc2ncnn2cc1Nc1ncc2c(n1)n(C1CCOCC1)c(=O)n2C [AZD7648] (first compound max 1 µM, 7x7, partner max 10 µM) , thanks.
A: -0.0489

Q: Query (compound): CN(CCO)CC[C@H](CSc1ccccc1)Nc1ccc(S(=O)(=O)NC(=O)c2ccc(N3CCC([C@@H](O)c4ccccc4-c4ccc(Cl)cc4)CC3)cc2)cc1S(=O)(=O)C(F)(F)F [AZD4320] + Cc1cc2ncnn2cc1Nc1ncc2c(n1)n(C1CCOCC1)c(=O)n2C [AZD7648] (first compound max 1 µM, 7x7, partner max 10 µM) ; field requested: Bliss excess
A: -0.0594

***
Q: What value of Bliss excess has been recorded for this entry: Cc1c2c(nn1C)CSCc1cc(n(C)n1)CSc1cc(c3ccccc3c1)OCCCc1c(C(=O)O)n(C)c3c-2c(Cl)ccc13 [AZD5991] + C[C@@H](Nc1cc(F)cc(F)c1)c1cc(C(=O)N(C)C)cc2c(=O)cc(N3CCOCC3)oc12 [AZD8186] (first compound max 1 µM, 7x7, partner max 3 µM)
A: 0.042

Q: Recorded Bliss excess for COc1cccc(OCCCN)c1-c1cc(Nc2cnc(C#N)cn2)n[nH]1 [Prexasertib] + C=CCn1c(=O)c2cnc(Nc3ccc(N4CCN(C)CC4)cc3)nc2n1-c1cccc(C(C)(C)O)n1 [AZD1775] (first compound max 1 µM, partner max 1 µM) , please?
A: 0.0633

Q: What value of Bliss excess has been reported for the following compound? C=CCn1c(=O)c2cnc(Nc3ccc(N4CCN(C)CC4)cc3)nc2n1-c1cccc(C(C)(C)O)n1 [AZD1775] + C[C@@H]1COCCN1C2=NC(=NC(=C2)C3(CC3)[S@](=N)(=O)C)C4=C5C=CNC5=NC=C4 [AZD6738] (first compound max 1 µM, partner max 10 µM)
A: 0.0178

Q: Fill blank: measured Bliss excess of the compound Cc1cc2ncnn2cc1Nc1ncc2c(n1)n(C1CCOCC1)c(=O)n2C [AZD7648] + C=CCn1c(=O)c2cnc(Nc3ccc(N4CCN(C)CC4)cc3)nc2n1-c1cccc(C(C)(C)O)n1 [AZD1775] (first compound max 10 µM, partner max 1 µM) is ____.
A: -0.0014

Q: So what does the record say about Bliss excess for Cc1c2c(nn1C)CSCc1cc(n(C)n1)CSc1cc(c3ccccc3c1)OCCCc1c(C(=O)O)n(C)c3c-2c(Cl)ccc13 [AZD5991] + Cn1cnc2c(F)c(Nc3ccc(Br)cc3Cl)c(C(=O)NOCCO)cc21 [Selumetinib] (first compound max 1 µM, 7x7, partner max 3 µM) ?
A: -0.0171

Q: What Bliss excess value was documented for this compound, CS(=O)(=O)CCNCc1ccc(-c2ccc3ncnc(Nc4ccc(OCc5cccc(F)c5)c(Cl)c4)c3c2)o1 [Lapatinib] + NC1(c2ccc(-c3nc4ccn5c(=O)[nH]nc5c4cc3-c3ccccc3)cc2)CCC1 [MK-2206] (first compound max 10 µM, 7x7, partner max 10 µM) ?
A: -0.004

Q: // query Bliss excess value for entry CC1(C)CCC(CN2CCN(c3ccc(C(=O)NS(=O)(=O)c4ccc(NCC5CCOCC5)c([N+](=O)[O-])c4)c(Oc4cnc5[nH]ccc5c4)c3)CC2)=C(c2ccc(Cl)cc2)C1 [Venetoclax] + C[C@@H](Nc1cc(F)cc(F)c1)c1cc(C(=O)N(C)C)cc2c(=O)cc(N3CCOCC3)oc12 [AZD8186] (first compound max 1 µM, 7x7, partner max 3 µM)
A: -0.0777

Q: # query: Bliss excess of entry Cc1c2c(nn1C)CSCc1cc(n(C)n1)CSc1cc(c3ccccc3c1)OCCCc1c(C(=O)O)n(C)c3c-2c(Cl)ccc13 [AZD5991] + C[C@@H]1COCCN1C2=NC(=NC(=C2)C3(CC3)[S@](=N)(=O)C)C4=C5C=CNC5=NC=C4 [AZD6738] (first compound max 1 µM, 7x7, partner max 10 µM)
A: 0.0029

All values here come from the supplement of paper PMC11061612.
